Entries and their half-life values follow.
# test-description: in vivo
# Parameters: species or system Sprague Dawley rats
# run-conditions: male, Sprague Dawley, rat, po, 50 mg/kg
Unit h implied. Number only.

Past entries and their recorded results:
1. Cc1nc(NCc2ccncc2)n2nc(C)c(-c3ccc4c(c3)c(C)nn4C)c2n1 | 5
2. Cc1cc(NCc2ccc(S(N)(=O)=O)cc2)n2nc(C)c(-c3ccc4c(c3)c(C)nn4C)c2n1 | 8.2
3. Cc1cc(NCc2ccncc2)n2nc(C)c(-c3ccc4c(c3)c(C)nn4C)c2n1 | 5.4
4. Cc1cc(NCc2ccncc2)c2nc(C)c(-c3ccc4c(c3)c(C)nn4C)n2n1 | 4.3
5. Cc1ccc(CNc2cc(C)nn3c(-c4ccc5c(c4)c(C)nn5C)c(C)nc23)cn1 | 6.6

// below: half-life requested for another compound
Exercise: Tell me half-life reported for "Cc1cc(NCc2ccc(S(C)(=O)=O)cc2)n2nc(C)c(-c3ccc4c(c3)c(C)nn4C)c2n1"
Solution: 27.6

----------
# tgt: PI4KIIIβ (Homo sapiens, UniProt Q9UBF8)
# Sequence (Q9UBF8 whole entry): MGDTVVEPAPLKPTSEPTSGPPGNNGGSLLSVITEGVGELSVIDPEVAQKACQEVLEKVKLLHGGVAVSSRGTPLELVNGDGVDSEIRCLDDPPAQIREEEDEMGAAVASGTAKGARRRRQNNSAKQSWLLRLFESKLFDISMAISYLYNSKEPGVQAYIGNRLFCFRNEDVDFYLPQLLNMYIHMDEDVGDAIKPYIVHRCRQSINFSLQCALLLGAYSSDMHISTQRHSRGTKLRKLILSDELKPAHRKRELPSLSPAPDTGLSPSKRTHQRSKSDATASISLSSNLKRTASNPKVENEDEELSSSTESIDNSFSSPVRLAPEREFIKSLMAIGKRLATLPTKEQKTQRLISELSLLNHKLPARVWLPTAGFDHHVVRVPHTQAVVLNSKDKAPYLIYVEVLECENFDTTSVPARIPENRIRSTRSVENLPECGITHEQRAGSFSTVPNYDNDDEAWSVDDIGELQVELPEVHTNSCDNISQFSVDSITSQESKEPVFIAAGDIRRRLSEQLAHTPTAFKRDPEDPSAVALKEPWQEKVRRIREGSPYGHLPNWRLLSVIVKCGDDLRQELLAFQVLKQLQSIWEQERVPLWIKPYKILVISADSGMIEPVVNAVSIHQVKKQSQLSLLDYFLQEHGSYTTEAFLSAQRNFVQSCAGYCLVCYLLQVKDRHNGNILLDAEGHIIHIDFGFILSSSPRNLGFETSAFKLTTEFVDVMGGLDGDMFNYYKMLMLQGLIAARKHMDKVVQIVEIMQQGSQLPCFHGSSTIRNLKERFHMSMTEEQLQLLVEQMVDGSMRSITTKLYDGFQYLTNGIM
metric: IC50 (nM)
Unit nM implied. Number only.

1) Cc1cc(NCc2ccncc2)n2nc(C)c(-c3ccc4c(c3)c(C)nn4C)c2n1 | 0.9
2) Cc1cc(NCc2ccc(S(C)(=O)=O)cc2)n2nc(C)c(-c3ccc4c(c3)c(C)nn4C)c2n1 | 0.8

Exercise: Tell me IC50 reported for "Cc1nc(NCc2ccncc2)n2nc(C)c(-c3ccc4c(c3)c(C)nn4C)c2n1"
Solution: 1.2

Exercise: Tell me IC50 reported for "Cc1ccc(CNc2cc(C)nn3c(-c4ccc5c(c4)c(C)nn5C)c(C)nc23)cn1"
Solution: 1.5

----------
Entries and their IC50 values follow.
# Tested on: coxsackie B2 virus
# test-description: In vitro CPE assay in mammalian cell culture, B2
# Type: cell-based
# run-conditions: viral cytopathic effect in mammalian cell culture, read-out: B2 inhibition capacity (IC50)

1. Cc1nc(NCc2ccc(S(C)(=O)=O)cc2)n2nc(C)c(-c3ccc4c(c3)c(C)nn4C)c2n1 | < 10 nM
2. COc1ccc(CNc2nc(C)nc3c(-c4ccc5c(c4)c(C)nn5C)c(C)nn23)cc1 | < 1000 nM

Exercise: Tell me IC50 reported for "Cc1nc(NCc2ccc(Cl)cc2)n2nc(C)c(-c3ccc4c(c3)c(C)nn4C)c2n1"
Solution: < 100 nM

Exercise: Tell me IC50 reported for "Cc1ccc(CNc2cc(C)nc3c(-c4ccc5c(c4)c(C)nn5C)c(C)nn23)cn1"
Solution: < 10 nM

Exercise: Tell me IC50 reported for "Cc1ccc(CNc2nc(C)nc3c(-c4ccc5c(c4)c(C)nn5C)c(C)nn23)cn1"
Solution: < 10 nM

Exercise: Tell me IC50 reported for "Cc1nc(NCc2cccs2)n2nc(C)c(-c3ccc4c(c3)c(C)nn4C)c2n1"
Solution: < 1 nM

Exercise: Tell me IC50 reported for "COc1ccc(CNc2cc(C)nn3c(-c4ccc5c(c4)c(C)nn5C)c(C)nc23)cn1"
Solution: < 100 nM

Exercise: Tell me IC50 reported for "COc1ccc(CNc2nc(C)nc3c(-c4ccc5c(c4)c(C)nn5C)c(C)nn23)cn1"
Solution: < 100 nM

----------
Entries and their Tmax values follow.
# test-description: in vivo
# Design: species or system Sprague Dawley rats
# run-conditions: male, Sprague Dawley, rat, po, 50 mg/kg
Unit h implied. Number only.

Exercise: Tell me Tmax reported for "Cc1cc(NCc2ccncc2)n2nc(C)c(-c3ccc4c(c3)c(C)nn4C)c2n1"
Solution: 1.7

Exercise: Tell me Tmax reported for "Cc1cc(NCc2ccncc2)c2nc(C)c(-c3ccc4c(c3)c(C)nn4C)n2n1"
Solution: 1.7

Exercise: Tell me Tmax reported for "Cc1cc(NCc2ccc(S(C)(=O)=O)cc2)n2nc(C)c(-c3ccc4c(c3)c(C)nn4C)c2n1"
Solution: 5.3
